experiment: Intrinsic clearance in human liver microsomes assessed per mg protein at 1 uM measured up to 45 mins; type: ADME, microsome; conditions: read-out: CLH
reportedMetric: microsomal CLint at 1 µM (µL/min/mg)
Answer format: numeric, µL/min/mg implied, no suffix.

Query block: I have this molecule here, "CCOCc1cn(-c2ccc(Cl)cc2)nn1" , and I need its recorded microsomal CLint at 1 µM.
Result block: 30.2

###

molecular target: UDP-glucuronosyltransferase 1A1 (Homo sapiens, UniProt P22309); assay: Drug metabolism assessed as UGT1A1 (unknown origin)-mediated metabolite formation; type: ADME
Sequence (P22309 whole entry): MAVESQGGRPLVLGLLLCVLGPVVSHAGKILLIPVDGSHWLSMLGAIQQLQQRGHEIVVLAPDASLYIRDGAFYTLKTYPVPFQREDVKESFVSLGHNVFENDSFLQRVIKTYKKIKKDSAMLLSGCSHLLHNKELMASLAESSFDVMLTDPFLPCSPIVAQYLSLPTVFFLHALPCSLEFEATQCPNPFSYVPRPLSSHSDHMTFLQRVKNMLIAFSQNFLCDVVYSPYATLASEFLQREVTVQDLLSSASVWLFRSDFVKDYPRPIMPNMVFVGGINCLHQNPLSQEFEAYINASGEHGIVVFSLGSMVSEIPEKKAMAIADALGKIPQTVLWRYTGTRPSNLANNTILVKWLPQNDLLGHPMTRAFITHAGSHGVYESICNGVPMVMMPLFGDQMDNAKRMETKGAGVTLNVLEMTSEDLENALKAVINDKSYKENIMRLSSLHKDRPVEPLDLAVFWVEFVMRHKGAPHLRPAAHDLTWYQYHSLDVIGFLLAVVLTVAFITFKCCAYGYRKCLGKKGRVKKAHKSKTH
reportedMetric: Drug metabolism

molecule	result
O=C(O)Cc1ccccc1Nc1c(Cl)cccc1Cl [DICLOFENAC]	Metabolite_Notdetected
CCOCc1cn(-c2ccc(Cl)cc2)nn1	Metabolite_Notdetected
CC(C)Cc1ccc(C(C)C(=O)O)cc1 (centres undefined) [IBUPROFEN]	Metabolite_Notdetected

###

Entries and their pIC50
Target: P2X purinoceptor 7 (Mus musculus, UniProt Q9Z1M0)
Sequence (Q9Z1M0 whole entry): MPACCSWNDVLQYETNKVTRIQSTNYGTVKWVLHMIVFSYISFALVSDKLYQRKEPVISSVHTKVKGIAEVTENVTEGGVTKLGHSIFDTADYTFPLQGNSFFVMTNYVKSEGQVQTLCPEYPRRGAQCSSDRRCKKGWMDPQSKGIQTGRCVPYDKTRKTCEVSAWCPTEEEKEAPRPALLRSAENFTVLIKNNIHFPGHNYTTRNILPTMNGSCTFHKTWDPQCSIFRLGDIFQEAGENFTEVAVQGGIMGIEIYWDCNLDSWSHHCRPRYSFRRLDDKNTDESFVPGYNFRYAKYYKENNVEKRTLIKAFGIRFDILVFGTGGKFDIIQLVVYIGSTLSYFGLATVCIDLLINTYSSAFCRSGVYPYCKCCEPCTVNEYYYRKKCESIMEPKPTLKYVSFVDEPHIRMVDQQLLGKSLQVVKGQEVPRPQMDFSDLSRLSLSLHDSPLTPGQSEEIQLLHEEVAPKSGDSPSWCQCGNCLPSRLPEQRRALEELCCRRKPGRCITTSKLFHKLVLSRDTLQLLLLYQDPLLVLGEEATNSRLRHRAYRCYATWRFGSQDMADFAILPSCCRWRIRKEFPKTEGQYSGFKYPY
Assay: Antagonist activity at P2X7 receptor in Swiss mouse peritoneal macrophages assessed as inhibition of BzATP-induced current at holding potential of -60 mV preincubated for 5 mins followed by BzATP addition measured after 5 mins by Whole cell patch-clamp analysis
Field pIC50 (float): negative decimal logarithm of the concentration in molar.

compound	pIC50
CCOc1ccc(Nc2ccc(/C(=C3C=C/C(=[N+](/CC)Cc4cccc(S(=O)(=O)[O-])c4)C=C/3C)c3ccc(N(CC)Cc4cccc(S(=O)(=O)[O-])c4)cc3C)cc2)cc1.[Na+] [BRILLIANT BLUE G]	6.39
COc1ccc(CC(=O)NC(N/C(=N/C#N)Nc2cccc3ncccc23)C(C)(C)C)cc1OC (stereo not drawn)	7.33

Now let's try a different one.
Query block: I have this compound here, "CCOCc1cn(-c2ccc(Cl)cc2)nn1" , and I need its recorded pIC50.
Result block: 7.39

###

target: UDP-glucuronosyltransferase 2B7 (Homo sapiens, UniProt P16662); assay: Drug metabolism assessed as UGT2B7 (unknown origin)-mediated metabolite formation; format: ADME
Sequence (P16662 whole entry): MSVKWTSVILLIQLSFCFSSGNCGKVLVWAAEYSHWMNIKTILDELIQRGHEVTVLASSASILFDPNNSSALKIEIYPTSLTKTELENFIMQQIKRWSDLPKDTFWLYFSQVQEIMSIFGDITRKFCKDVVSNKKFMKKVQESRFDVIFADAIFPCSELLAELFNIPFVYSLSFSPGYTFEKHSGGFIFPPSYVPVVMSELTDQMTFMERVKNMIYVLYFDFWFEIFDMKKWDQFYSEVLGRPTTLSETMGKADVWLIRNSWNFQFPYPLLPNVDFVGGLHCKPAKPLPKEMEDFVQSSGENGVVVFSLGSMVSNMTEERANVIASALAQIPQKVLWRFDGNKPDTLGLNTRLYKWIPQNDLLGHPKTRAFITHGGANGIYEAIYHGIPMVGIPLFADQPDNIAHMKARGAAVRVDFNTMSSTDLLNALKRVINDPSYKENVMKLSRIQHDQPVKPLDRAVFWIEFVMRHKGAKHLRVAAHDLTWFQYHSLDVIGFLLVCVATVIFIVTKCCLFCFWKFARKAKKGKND

molecule	Drug metabolism
CC(C)Cc1ccc(C(C)C(=O)O)cc1 (centres undefined)	Metabolite_Detected
COc1ccc2cc([C@H](C)C(=O)O)ccc2c1	Metabolite_Detected
O=C(O)Cc1ccccc1Nc1c(Cl)cccc1Cl	Metabolite_Detected
